pKi: −log10 of the molar value.
The entries that follow carry pKi values tested on Carbonic anhydrase 1 (Homo sapiens, UniProt P00915), drawn from several published reports.
MEASURED_ENDPOINT: pKi

• NS(=O)(=O)c1cccc(NC(=O)NCCNCc2ccc(F)cc2)c1 = 6.06

a: NS(=O)(=O)c1ccc(NC(=O)NCc2cn(CCCS(=O)(=O)[O-])nn2)cc1.[Na+]
b: O=C(O)c1ccc(NC(=S)NC(=O)c2ccc(Br)cc2)cc1
Lookup: # query: argmin of pKi over a and b // output: label of the selected item
Found: b

---

# Ki against Carbonic anhydrase 1 (Homo sapiens, UniProt P00915), merged from multiple literature sources
MEASURED_ENDPOINT: Ki (µM)

# example entries with known answers
- NS(=O)(=O)c1ccc(CCNC(=O)CNC(=O)OCC2c3ccccc3-c3ccccc32)cc1: 0.036
- COc1cccc(NC(=O)NCc2cn(CCCCS(N)(=O)=O)nn2)c1: 5.52
- COc1cccc(C(=O)N2CCc3cc(S(N)(=O)=O)ccc32)c1: 0.0677

1: CSc1ccc(C(=O)N2CCc3cc(S(N)(=O)=O)ccc32)cc1
2: NS(=O)(=O)c1ccc(NC(=O)NCCNCc2ccccc2F)cc1
Lookup: Of 1 versus 2 , which is the one with smaller reported Ki? Give the label under which the chosen entry appears.
Found: 2
(2: 0.0246 µM, 1: 0.0714 µM)

I: NC1=NC2(CCCCC2)NC(Nc2ccc(S(N)(=O)=O)cc2)=N1
II: Cn1c2ccccc2c2nnc(SCc3cn(-c4ccc(S(N)(=O)=O)cc4)nn3)nc21
Lookup: Please indicate which has the smaller reported Ki: I , or II . // return label of chosen record
Found: I
